# credit: patent US9464064B2

Molecular target: HCV NS3 helicase NS3h_1b(con1) (Hepatitis C virus genotype 1b)
Construct: truncated C-terminally His-tagged NS3 proteins lacking the N-terminal protease, called NS3h; His-tag (C); made in house
Sequence (Q9WMX2 1192-1657): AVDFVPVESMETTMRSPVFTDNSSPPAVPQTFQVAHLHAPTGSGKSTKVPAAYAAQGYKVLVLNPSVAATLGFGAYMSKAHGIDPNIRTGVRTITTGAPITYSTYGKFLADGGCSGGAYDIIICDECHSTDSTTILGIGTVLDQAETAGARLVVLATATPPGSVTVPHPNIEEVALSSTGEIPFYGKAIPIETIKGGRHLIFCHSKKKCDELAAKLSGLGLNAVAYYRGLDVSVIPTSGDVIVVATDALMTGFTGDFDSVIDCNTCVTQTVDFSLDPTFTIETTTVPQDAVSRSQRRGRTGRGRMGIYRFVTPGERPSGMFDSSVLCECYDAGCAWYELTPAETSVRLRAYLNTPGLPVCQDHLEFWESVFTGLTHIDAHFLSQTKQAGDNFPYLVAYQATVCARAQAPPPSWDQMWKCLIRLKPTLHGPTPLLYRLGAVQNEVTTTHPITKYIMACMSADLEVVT
Test: MBHA screen of NCI mechanistic set library at 20 μM (percent inhibition, compound interference)
Assay type: biochemical
Settings: compounds at 20 μM, MBHA with DNA substrate; assay interference calculated with Equation 2
Method: All molecular beacon-based helicase assays (MBHAs) were performed according to known methods (Belon & Frick (2008) supra; Belon & Frick (2009) supra). […] Fluorescence was read before ATP (F0) addition and 30 minutes after ATP was added to 1 mM (F30) using a Tecan Infinite M200 fluorescence microplate reader with excitation and emission wavelengths set to 643 and 670 nm, respectively. […]
Reported Int.* (Ratio) (Interference) values are given for each entry in this list.

compound	result-unit	Int.* (Ratio) (Interference)
COC(=O)C1c2cc3c(c(O)c2C(OC2OC(C)C(OC)C(C)(OC)C2OC)CC1(C)O)C(=O)c1c(O)cc2c(c1C3=O)OC1OC2(C)C(O)C(N(C)C)C1O (centres unmarked)	Ratio	0.59
COc1ccc2cccc(C(=N)c3ccc(C)c4c3CCC4)c2c1	Ratio	0.95
CCCCS(=N)(=O)CCC(N)C(=O)O (centres unmarked)	Ratio	0.94
O=C(CC1(O)C(=O)Nc2c(Cl)ccc(Cl)c21)c1ccc(Cl)cc1Cl (centres unmarked)	Ratio	0.89
O=C1N[C@@H]2C(=C[C@H](O)[C@@H](O)[C@H]2O)c2cc3c(cc21)OCO3	Ratio	0.98
O=C(O)c1ccccc1-c1ccccc1C(=O)Nc1ccc2c(c1)Cc1ccccc1-2	Ratio	1.16
Nc1ccccc1C(=O)NC(=O)Nc1ccc(Oc2ncc(Br)cn2)c(Cl)c1	Ratio	1.05
Cc1cc(N)c2ccccc2[n+]1CCCCCCCCCC[n+]1c(C)cc(N)c2ccccc21.[Cl-].[Cl-]	Ratio	0.18
Cc1ccc(NC(=O)c2cccc([N+](=O)[O-])c2O)c(C)c1	Ratio	0.97
COc1cc([C@H]2c3cc4c(cc3C[C@@H]3COC(=O)[C@H]32)OCO4)cc(OC)c1OC	Ratio	0.94
c1ccc2c(NCCCCCCCCNc3c4ccccc4nc4ccccc34)c3ccccc3nc2c1	Ratio	0.26
O=C(CC(=O)C(F)(F)F)c1csc2ccccc12	Ratio	1.12
COc1ccc2nc(NC(=O)C(=O)CC(=O)c3ccc(Cl)cc3)sc2c1	Ratio	0.94
CCCCCCC1CC(=O)C1(Cl)Cl (centres unmarked)	Ratio	0.97
Cl.O=C1c2cccc(NCCCNCCO)c2C(=O)c2cccc(NCCCNCCO)c21	Ratio	0.17
CCSC(=O)N1c2ccc(OC)cc2C=CC1C#N (centres unmarked)	Ratio	1.20
O=C1N[C@H]2[C@H](O)[C@H](O)[C@@H](O)[C@H](O)[C@@H]2c2cc3c(c(O)c21)OCO3	Ratio	0.95
COc1ccc(NC(=O)CC(=O)N2N=C(C)C(N=Nc3ccc(S(=O)(=O)c4ccc(N=NC5C(=O)N(C(=O)CC(=O)Nc6ccc(OC)cc6)N=C5C)cc4)cc3)C2=O)cc1 (centres unmarked)	Ratio	1.00
OCC1OC(n2cnc3c(=S)nc[nH]c32)C(O)C1O (centres unmarked)	Ratio	1.10
COc1ccc2nc(C)cc(NCCCCCCCCCNc3cc(C)nc4ccc(OC)cc34)c2c1	Ratio	0.23
CC12C(=O)OC(=O)C1(C)C1CCC2O1 (centres unmarked)	Ratio	0.95
NC(=S)NN=Cc1ncccc1O	Ratio	0.98
Cc1ccc(C)c(NC(=O)C(=O)C(C(=O)c2ccc3ccccc3c2)C2OC(=O)c3ccccc32)c1 (centres unmarked)	Ratio	0.97
Nc1ncnc2c(C3OC(CO)C(O)C3O)[nH]nc12 (centres unmarked)	Ratio	1.08
[Mo] [Compound 622116]	Ratio	0.97
CCOC(=O)NC1=C(N2CC2)C(=O)C(NC(=O)OCC)=C(N2CC2)C1=O	Ratio	1.18
Cc1ccc(NC(=O)/C=C/c2ccccc2)c(C)c1	Ratio	1.06
O=c1cnn(C2OC(CO)C(O)C2O)c(=S)[nH]1 (centres unmarked)	Ratio	1.15
CCOC(=O)Cc1c(C)c2cc(C(=O)c3ccccc3)c(O)cc2oc1=O	Ratio	1.02
COc1nc(N)nc2nc[nH]c12	Ratio	1.01
Cl.Cl.Cl.Cl.NCCCNCCCCNCCCN	Ratio	1.06
O=C1C2=Nc3ccccc3C(O)N2c2ccccc21 (centres unmarked)	Ratio	1.07
CSCC(CO)NC(=O)/C=C/c1c(C)[nH]c(=O)[nH]c1=O (centres unmarked)	Ratio	1.00
CC1(C)C2CCC1(CS(=O)(=O)O)C(=O)C2.CN1C(c2ccccc2)CC(=NO)CC1c1ccccc1 (centres unmarked)	Ratio	1.04
COC(=O)c1ccccc1NC(=O)C(=O)CC(=O)c1ccccc1NC1=CC(=O)C(=O)c2ccccc21	Ratio	0.88
